experimental_protocol: Measurement of oral absorbability (plasma AUC after oral administration)
setup_conditions: in vivo, 0.1 mmol/kg in physiological saline, male ICR mouse, plasma concentration of 9-[1'S,2'R-bis(hydroxymethyl)cyclopropan-1'-yl]methylguanine by HPLC, 15 minutes to 4 hours
reported_property: AUC at 4 h (µM·h)
Numbers only, in µM·h.

Request: Endpoint output: AUC at 4 h of Nc1nc2c(ncn2C[C@]2(CO)C[C@H]2CO)c(=O)[nH]1 . Value?
Result: 16
